assay: endothelial E-selectin expression blockers – imaging, HUVEC, immunofluorescence, MLSMR starter and 10KST1 sets, primary screen (AID 487); conditions: HUVEC TNFalpha-induced E-selectin immunofluorescence imaging, at 2 µM; active compounds read high;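 also: signal is fraction of cell area covered by stained E-selectin grains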
Readout: inhibition (%)
# output: bare number, implied unit %

Example entries begin here.
Molecule | inhibition (%)
O=C(Cn1nnc(-c2cc(Cl)ccc2-n2cnnn2)n1)N1CCCc2ccccc21 | -13.8
CC(C)c1ccc(NC(=O)CCNS(=O)(=O)c2cccc3nonc23)cc1 | -55.8
Cc1ccc2c(c1)N(CC(=O)N1CCCCC1c1cccnc1)C(=O)CO2 (stereo not drawn) | -48.3
Cn1c(=O)[nH]c(=O)c2c1nc(CN1CCN(c3cccc(Cl)c3)CC1)n2CCc1ccccc1 | -90.8
CCS(=O)(=O)NCCc1cc2c(OC)ccc(OC)c2[nH]c1=O | 38.9
O=C1CCCCCN1CSc1nc2ccccc2s1 | 7.2
CC1(C)CC(=O)C=C(NC2CCS(=O)(=O)C2)C1 (stereo not drawn) | 10.6
CCOc1cc(C(=O)N(C)Cc2cc3ccccc3[nH]c2=O)cc(OCC)c1OCC | -205
CCN(C(=O)c1cc(Cl)ccc1OC)C1CCCCC1 | 15.2
O=C(Nc1ncc(Cc2ccccc2)s1)C1CCCO1 (stereo not drawn) | -1.5

Task: Any idea what inhibition was measured for CC1CN(S(=O)(=O)c2ccc(Cl)c(C(F)(F)F)c2)CC(C)O1 (stereo not drawn) ?
Result: 0.5
